What activity, negative = inhibition was measured for each of the following?
molecular target: Muscarinic acetylcholine receptor M1 (Homo sapiens) (UniProt P11229); assay: Cholinergic receptor muscarinic 1 (CHRM1) small molecule antagonists, cell-based qHTS assay (AID 1963588); conditions: CHRM1-CHO antagonist mode, calcium flux fluorescence; series mostly up to 61.5 µM; note: % is set by controls: 0 for no effect and ±100 for the full control effect; nearly all actives have a fitted effect of over 40% in size
Sequence (P11229 whole entry, looked up): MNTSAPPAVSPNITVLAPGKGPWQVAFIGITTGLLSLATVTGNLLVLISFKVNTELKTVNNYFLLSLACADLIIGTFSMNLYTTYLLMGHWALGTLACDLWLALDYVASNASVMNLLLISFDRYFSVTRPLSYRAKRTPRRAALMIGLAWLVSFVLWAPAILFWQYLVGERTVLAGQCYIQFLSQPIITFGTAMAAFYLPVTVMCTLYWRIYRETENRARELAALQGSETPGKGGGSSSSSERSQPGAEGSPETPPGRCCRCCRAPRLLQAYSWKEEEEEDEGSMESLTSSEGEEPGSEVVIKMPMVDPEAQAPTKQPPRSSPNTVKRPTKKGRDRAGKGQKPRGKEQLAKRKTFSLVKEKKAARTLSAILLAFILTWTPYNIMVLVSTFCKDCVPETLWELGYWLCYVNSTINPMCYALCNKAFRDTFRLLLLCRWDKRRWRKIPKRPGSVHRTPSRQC
Results filed as inconclusive are left out. Active and inactive are the calls of the source. Calls come from the whole dose curve.

CCCCCCCCCCCCCCCCCBr yielded activity, negative = inhibition of 7.9% [at 12.6 µM] (inactive)

Nc1ccc2c(c1)CN1C(=O)c3ccccc3C1=N2 yielded activity, negative = inhibition of 0.434% [at 12.6 µM] (inactive)

[O-][n+]1ccccc1SSc1cccc[n+]1[O-] yielded activity, negative = inhibition of 9.35% [at 12.6 µM] (inactive)

CCCCCCCCCCCCCCCCCCCl yielded activity, negative = inhibition of 10% [at 5.58 µM] (inactive)

CN1CCN(c2cc3c(nn2)Oc2ccccc2N3C)CC1 yielded activity, negative = inhibition of -12.9% [at 12.6 µM] (inactive)

CC1=CC(=C(c2ccc(N)cc2)c2ccc(N)cc2)C=CC1=N yielded activity, negative = inhibition of -8.08% [at 5.58 µM] (inactive)

CCN1/C(=C/C=C/c2sc3ccccc3[n+]2CC)Sc2ccccc21 yielded activity, negative = inhibition of -35.2% [at 12.6 µM] (inactive)

CC(CSC(=O)c1ccccc1)C(=O)N1C[C@@H](Sc2ccccc2)C[C@H]1C(=O)O (some centres not stated) yielded activity, negative = inhibition of 17.6% [at 12.6 µM] (inactive)

Nc1ccc(/C=C/c2ccc(N)cc2S(=O)(=O)O)c(S(=O)(=O)O)c1 yielded activity, negative = inhibition of 18% [at 0.232 µM] (inactive)

C[C@@H]1CN(c2c(F)c(F)c3c(=O)c(C(=O)O)cn(C4CC4)c3c2F)C[C@H](C)N1 yielded activity, negative = inhibition of 7.07% [at 12.6 µM] (inactive)

O=C(O)O yielded activity, negative = inhibition of -13.8% [at 5.58 µM] (inactive)

CN(C)CCCN(C)C yielded activity, negative = inhibition of 1.9% [at 5.58 µM] (inactive)
